Assay: folding stability dG unfold (combined trypsin and chymotrypsin); higher = more stable
Respond with rule met for folding stability dG unfold values of 2 kcal/mol and above, rule not met for values below.

{"entrySequence": "SFKLEKTITLPDYVLKIEVTFKPKPDKTVIAPIKVTIYDPVKKKPYTKELTKPFPPEDPLKFVEEALKEIFS [r1_171_TrMRF]", "category": "rule not met"}

Quick check, folding stability dG unfold >= 2 kcal/mol? SAGGSAGGSAGGPNWRIITHEIPIKDGEIEINLPEGIKPQSIERNPDDGYIKVSIVIPLSAGGSAGGSAGGS [r10_906_TrROS]
rule not met

Check SAGGSAGGMLTFTFSLSEIPPYPSGSLSLEEVKKRMEPILRKLLGRKDVKIKVESLPDGTIRVTVESAGGSA [r15_562_JUSTAS] too.
rule met
